Molecular target: biotinylated CD59 (Homo sapiens, UniProt P13987)
Construct: Recombinant soluble human CD59 with an additional C-terminal cysteine residue
Sequence (P13987 26-102 limits assumed): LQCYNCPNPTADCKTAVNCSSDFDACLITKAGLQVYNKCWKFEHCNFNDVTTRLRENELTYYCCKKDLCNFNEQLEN
Test: mRNA-display cyclic peptide screen against CD59-biotin, NGS abundance after 6th selection round
Conditions: NGS sample Seq I, sheet R6 (6th selection round)
Mark each entry rule met if its Counts (raw counts for peptide sequence), Seq I sits below 50, and rule not met for all others.

| SEQUENCE TEXT | CLASSIFICATION |
| --- | --- |
| FVRGDLNSVLG | rule not met |
| YVTGNRDHTRG | rule not met |
| CFAGRLTIDAG | rule not met |
| IARGGRHFSSG | rule met |
| FVTSNRDHTRG | rule met |
| CFSRRLTEGAI | rule met |
| LWGTRSFTLVRS | rule not met |
| CFTGRLTIDAV | rule met |
| HVFGNRSFARG | rule not met |

---

Target: biotinylated CD59 (Homo sapiens)
Construct: Recombinant soluble human CD59 with an additional C-terminal cysteine residue
Sequence (P13987 26-102 limits assumed): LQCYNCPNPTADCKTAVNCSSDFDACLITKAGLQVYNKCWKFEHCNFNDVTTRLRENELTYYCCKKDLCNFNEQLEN
Assay: mRNA-display cyclic peptide screen against CD59-biotin, NGS abundance after 6th selection round
Conditions: raw NGS counts of peptide sequence, sequencing sample Seq I, sheet R6 (6th selection round)

| SEQUENCE TEXT | TESTED ON | Counts Seq I |
| --- | --- | --- |
| WILGSRWWTQR | biotinylated CD59 (Homo sapiens) | 91 |
| RYGGRTFIYAWS | biotinylated CD59 (Homo sapiens) | 111 |
| STRRDRLGLIC | biotinylated CD59 (Homo sapiens) | 4600 |
| TYGSRFCPQYCAAAAAAARTGGG | biotinylated CD59 (Homo sapiens) | 133 |
| CFSHRRLEYGV | biotinylated CD59 (Homo sapiens) | 197 |
| GYLNECHTLYTQ | biotinylated CD59 (Homo sapiens) | 149 |
| RGGTRDTIWG | biotinylated CD59 (Homo sapiens) | 340 |
| SSYRELAHLSC | biotinylated CD59 (Homo sapiens) | 555 |
| FVRGDLYSVLG | biotinylated CD59 (Homo sapiens) | 21693 |
| EARGTKSFAYY | biotinylated CD59 (Homo sapiens) | 544 |
| CYGSRTFIYAWS | biotinylated CD59 (Homo sapiens) | 114 |
| GPRNECHSQFQN | biotinylated CD59 (Homo sapiens) | 401 |
| RIGTSTCPFKFS | biotinylated CD59 (Homo sapiens) | 106 |
| CFSRRLTAGAS | biotinylated CD59 (Homo sapiens) | 106 |
| CFTHRLTDFGT | biotinylated CD59 (Homo sapiens) | 230 |
| YVYGSRDRCWG | biotinylated CD59 (Homo sapiens) | 1946 |
| CFQNRVSGSGAL | biotinylated CD59 (Homo sapiens) | 522 |
| IASGSLHFVFY | biotinylated CD59 (Homo sapiens) | 119 |
| IQSGSQSWSRG | biotinylated CD59 (Homo sapiens) | 164 |
| CFSSRVQSGDT | biotinylated CD59 (Homo sapiens) | 936 |
